System: CEM cells HIV-1 protection, formazan growth assay
Experiment: NCI AIDS Antiviral Assay
Conditions: measured here: growth of uninfected CEM cells
# TRUE = IC50 below 3 µM (exclusive); FALSE = IC50 at/above 3 µM

Dear colleague, could you confirm whether IC50 of `COc1ccc2[nH]c3c(C)c4ccnc(NCCCN(C)CCCNc5ccc6nnn7c8ccccc8c(=O)c5c67)c4c(C)c3c2c1` falls below 3 µM? Thanks.
TRUE

Dear colleague, could you confirm whether IC50 of `CC(C)CC1=[N+]=C(NC#N)N=C(CCC(=O)Nc2ccccc2[N+](=O)[O-])C1` falls below 3 µM? Thanks.
FALSE

Dear colleague, could you confirm whether IC50 of `C=CC(=O)N1C/C(=C\c2ccc(Cl)cc2)C(=O)/C(=C/c2ccc(Cl)cc2)C1` falls below 3 µM? Thanks.
TRUE

Dear colleague, could you confirm whether IC50 of `CN(/N=C/c1ccccn1)C1=NCCCN1` falls below 3 µM? Thanks.
FALSE

Dear colleague, could you confirm whether IC50 of `O=C(Nc1ccccc1C(=O)O)C(=Cc1ccccc1O)NC(=O)c1ccccc1` falls below 3 µM? Thanks.
FALSE

Dear colleague, could you confirm whether IC50 of `N/C(=N\N=C\c1ccccn1)NO` falls below 3 µM? Thanks.
FALSE

Dear colleague, could you confirm whether IC50 of `COC1(OC)CC(CO)(CNc2nc(N)nc(Cl)c2/C=N\O)C1` falls below 3 µM? Thanks.
TRUE

Dear colleague, could you confirm whether IC50 of `O=C(NNC(=O)c1cccc(C(=O)NNC(=O)c2ccc(Cl)c(Cl)c2)n1)c1ccc(Cl)c(Cl)c1` falls below 3 µM? Thanks.
TRUE

Dear colleague, could you confirm whether IC50 of O=C1C2C3C=CC(O3)C2C(=O)N1/N=C/c1ccc2c(c1)OCO2 (stereo not drawn) falls below 3 µM? Thanks.
FALSE

Dear colleague, could you confirm whether IC50 of `CC(C)(C)c1cc(C(P(=O)(c2ccccc2)c2ccccc2)P(=O)(c2ccccc2)c2ccccc2)cc(C(C)(C)C)c1O` falls below 3 µM? Thanks.
FALSE

Dear colleague, could you confirm whether IC50 of `CC(C)CN1CC(=O)N2CCCN2C(=O)C1` falls below 3 µM? Thanks.
FALSE

Dear colleague, could you confirm whether IC50 of `CC1(C)OC(=O)C(=Cc2ccc(Br)cc2)C(=O)O1` falls below 3 µM? Thanks.
FALSE

Dear colleague, could you confirm whether IC50 of COC([C@@H](OC(=O)c1ccccc1)[C@H](OC(=O)c1ccccc1)C(O)COC(=O)c1ccccc1)n1cc(C)c(=O)[nH]c1=O (stereo partly drawn) falls below 3 µM? Thanks.
FALSE

Dear colleague, could you confirm whether IC50 of `Nc1c2c([nH]c(=O)c1N)CCC2` falls below 3 µM? Thanks.
FALSE

Dear colleague, could you confirm whether IC50 of O=c1[nH]cnc2c1ccn2C1OC(CO)C(O)C1O (stereo not drawn) falls below 3 µM? Thanks.
TRUE

Dear colleague, could you confirm whether IC50 of CC(=O)OCC1OC(n2c3c(c(-c4cccc5ccccc45)c(C#N)c2=S)CCCC3)C(OC(C)=O)C(OC(C)=O)C1OC(C)=O (stereo not drawn) falls below 3 µM? Thanks.
FALSE

Dear colleague, could you confirm whether IC50 of `CC(=O)OCCn1cnc2c(NCC=C(C)C)ncnc21` falls below 3 µM? Thanks.
FALSE

Dear colleague, could you confirm whether IC50 of `N=C(N)N` falls below 3 µM? Thanks.
FALSE

Just for reference, PubChem BioAssay AID179 is where these values come from.
